Target system: Tyrosine-protein kinase Lck (Homo sapiens, UniProt P06239); further: in the data inactive means no Kd found up to 30 µM
Sequence (P06239 whole entry): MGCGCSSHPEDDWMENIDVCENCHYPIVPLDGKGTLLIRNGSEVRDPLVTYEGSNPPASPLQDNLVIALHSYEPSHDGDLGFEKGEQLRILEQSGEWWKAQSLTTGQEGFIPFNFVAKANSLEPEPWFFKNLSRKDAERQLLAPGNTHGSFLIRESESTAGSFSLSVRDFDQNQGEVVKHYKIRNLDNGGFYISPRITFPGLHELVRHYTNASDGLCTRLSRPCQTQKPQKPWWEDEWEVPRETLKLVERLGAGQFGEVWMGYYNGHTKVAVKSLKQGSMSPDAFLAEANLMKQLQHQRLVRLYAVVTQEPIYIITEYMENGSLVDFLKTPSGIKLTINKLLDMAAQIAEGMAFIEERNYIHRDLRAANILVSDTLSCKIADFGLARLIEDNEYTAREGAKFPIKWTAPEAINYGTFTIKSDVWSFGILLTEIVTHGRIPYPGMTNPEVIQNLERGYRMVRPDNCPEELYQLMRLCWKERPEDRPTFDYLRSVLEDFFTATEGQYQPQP
Active and inactive are the calls of the source.
Outcomes: 1 (active), 0 (inactive)

>  <Molecule>
CNC(=O)c1cc(COc2nnc(Nc3ccc(Cl)cc3)c3ccoc23)ccn1 [TELATINIB]

>  <Label>
0

$$$$
>  <Molecule>
COc1cc(Nc2ncc(F)c(Nc3ccc4c(n3)N(COP(=O)(O)O)C(=O)C(C)(C)O4)n2)cc(OC)c1OC [FOSTAMATINIB]

>  <Label>
0

$$$$
>  <Molecule>
CC[C@@](C)(Nc1ccnc(-c2c[nH]c3ncccc23)n1)C(=O)NCC(F)(F)F [DECERNOTINIB]

>  <Label>
0

$$$$
>  <Molecule>
S=C(NCc1ccc2c(c1)OCO2)N1CCN(c2ncnc3c2oc2ccccc23)CC1 [AMUVATINIB]

>  <Label>
0

$$$$
>  <Molecule>
CN1CCN(c2nc(C3=C(c4c[nH]c5ccccc45)C(=O)NC3=O)c3ccccc3n2)CC1 [SOTRASTAURIN]

>  <Label>
0

$$$$
>  <Molecule>
COc1cc2nccc(Oc3ccc(NC(=O)C4(C(=O)Nc5ccc(F)cc5)CC4)cc3)c2cc1OC [CABOZANTINIB]

>  <Label>
1

$$$$

---

Target system: NADH dehydrogenase [ubiquinone] 1 alpha subcomplex subunit 13 (Homo sapiens, UniProt Q9P0J0); further: in the data inactive means no Kd found up to 30 µM
Sequence (Q9P0J0 whole entry, one chain of several): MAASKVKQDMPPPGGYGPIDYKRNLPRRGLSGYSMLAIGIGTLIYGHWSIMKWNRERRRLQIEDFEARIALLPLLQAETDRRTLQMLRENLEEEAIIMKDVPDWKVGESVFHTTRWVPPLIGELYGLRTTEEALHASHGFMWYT
Active and inactive are the calls of the source.
Kd listing for selected compounds.

>  <Compound>
CN(C)C/C=C/C(=O)Nc1cc2c(Nc3ccc(F)c(Cl)c3)ncnc2cc1O[C@H]1CCOC1 [AFATINIB]

>  <Kd>
> 30 µM (inactive)

$$$$
>  <Compound>
O=S(=O)(c1cccc2cnccc12)N1CCCNCC1 [FASUDIL]

>  <Kd>
> 30 µM (inactive)

$$$$
>  <Compound>
C[C@]1(O)C[C@@H](c2nc(-c3ccc4ccc(-c5ccccc5)nc4c3)c3c(N)nccn32)C1 [LINSITINIB]

>  <Kd>
> 30 µM (inactive)

$$$$
>  <Compound>
O[C@H]1CC[C@H](Nc2ncc3nc(Nc4c(F)cc(F)cc4F)n([C@H]4CCOC4)c3n2)CC1 [TANZISERTIB]

>  <Kd>
> 30 µM (inactive)

$$$$
>  <Compound>
S=C(NCc1ccc2c(c1)OCO2)N1CCN(c2ncnc3c2oc2ccccc23)CC1 [AMUVATINIB]

>  <Kd>
> 30 µM (inactive)

$$$$
>  <Compound>
NC(=O)c1ccc(N(C(N)=O)c2c(F)cccc2F)nc1-c1ccc(F)cc1F [VX-702]

>  <Kd>
> 30 µM (inactive)

$$$$
>  <Compound>
O=C(Nc1ccc(OC(F)(F)F)cc1)c1sccc1NCc1ccnc2ccccc12 [OSI-930]

>  <Kd>
> 30 µM (inactive)

$$$$
>  <Compound>
COc1cc2ncnc3c2cc1OCCCCCN(C)Cc1ccc(Br)cc1N3 [JNJ-26483327]

>  <Kd>
> 30 µM (inactive)

$$$$
>  <Compound>
CC(C)(O)CC(=O)NCCn1ccc2ncnc(Nc3ccc(Oc4cccc(C(F)(F)F)c4)c(Cl)c3)c21 [TAK-285]

>  <Kd>
> 30 µM (inactive)

$$$$
>  <Compound>
COc1cc2nccc(Oc3ccc(NC(=O)C4(C(=O)Nc5ccc(F)cc5)CC4)cc3)c2cc1OC [CABOZANTINIB]

>  <Kd>
> 30 µM (inactive)

$$$$
>  <Compound>
CCN(CCCOc1ccc2c(Nc3cc(CC(=O)Nc4cccc(F)c4)n[nH]3)ncnc2c1)CCOP(=O)(O)O [BARASERTIB]

>  <Kd>
> 30 µM (inactive)

$$$$
>  <Compound>
COc1cc(F)c(F)c(Nc2ccc(I)cc2F)c1NS(=O)(=O)C1(C[C@H](O)CO)CC1 [REFAMETINIB]

>  <Kd>
> 30 µM (inactive)

$$$$
>  <Compound>
COc1cc(Nc2ncc(F)c(Nc3ccc4c(n3)N(COP(=O)(O)O)C(=O)C(C)(C)O4)n2)cc(OC)c1OC [FOSTAMATINIB]

>  <Kd>
> 30 µM (inactive)

$$$$
>  <Compound>
CCc1cc2c(cc1N1CCC(N3CCOCC3)CC1)C(C)(C)c1[nH]c3cc(C#N)ccc3c1C2=O [ALECTINIB]

>  <Kd>
> 30 µM (inactive)

$$$$
>  <Compound>
Cc1cc(-c2cc(OC(=O)c3ccccc3)ccc2Cl)cc2nnc(Nc3ccc(OCCN4CCCC4)cc3)nc12 [TG100-801]

>  <Kd>
> 30 µM (inactive)

$$$$
>  <Compound>
O=S(=O)(c1cccc2c(O)nccc12)N1CCCNCC1 [HYDROXYFASUDIL]

>  <Kd>
> 30 µM (inactive)

$$$$
>  <Compound>
NC[C@@](O)(c1ccc(Cl)cc1)c1ccc(-c2cn[nH]c2)cc1 [AT-13148]

>  <Kd>
> 30 µM (inactive)

$$$$
>  <Compound>
COc1cc2ncnc(Nc3ccc(O)cc3)c2cc1OC [WHI-P131]

>  <Kd>
> 30 µM (inactive)

$$$$
>  <Compound>
CNC(=O)c1cccc(-c2ccc3c(N4CCOC[C@@H]4C)nc(N4CCOC[C@@H]4C)nc3n2)c1 [VISTUSERTIB]

>  <Kd>
> 30 µM (inactive)

$$$$
>  <Compound>
Cc1ccc(C(=O)Nc2ccc(Oc3cc4cnn(C)c4cc3-c3cn[nH]c3)c(F)c2)c(=O)n1-c1ccc(F)cc1 [MERESTINIB]

>  <Kd>
> 30 µM (inactive)

$$$$
>  <Compound>
Cn1c(=O)n(-c2ccc(C(C)(C)C#N)cc2)c2c3cc(-c4cnc5ccccc5c4)ccc3ncc21 [DACTOLISIB]

>  <Kd>
> 30 µM (inactive)

$$$$
>  <Compound>
COc1cccc2cc(-c3nc([C@H]4CC[C@H](C(=O)O)CC4)n4ncnc(N)c34)[nH]c12 [OSI-027]

>  <Kd>
> 30 µM (inactive)

$$$$
>  <Compound>
Cc1cc(Nc2nc(N[C@@H](C)c3ncc(F)cn3)ncc2Cl)n[nH]1 [AZD-1480]

>  <Kd>
> 30 µM (inactive)

$$$$
>  <Compound>
C=CC(=O)Nc1cccc(Nc2nc(Nc3ccc(N4CCN(C(C)=O)CC4)cc3OC)ncc2C(F)(F)F)c1 [ROCILETINIB]

>  <Kd>
> 30 µM (inactive)

$$$$
>  <Compound>
CNC(=O)c1cc(COc2nnc(Nc3ccc(Cl)cc3)c3ccoc23)ccn1 [TELATINIB]

>  <Kd>
> 30 µM (inactive)

$$$$
>  <Compound>
O=C(O)c1ccc2c(c1)nc(Nc1cccc(Cl)c1)c1ccncc12 [SILMITASERTIB]

>  <Kd>
> 30 µM (inactive)

$$$$
>  <Compound>
O=C(NOC[C@H](O)CO)c1ccc(F)c(F)c1Nc1ccc(I)cc1F [MIRDAMETINIB]

>  <Kd>
> 30 µM (inactive)

$$$$
>  <Compound>
C=CC(=O)Nc1cc(Nc2nccc(-c3cn(C)c4ccccc34)n2)c(OC)cc1N(C)CCN(C)C [OSIMERTINIB]

>  <Kd>
> 30 µM (inactive)

$$$$
>  <Compound>
CN(c1ncccc1CNc1nc(Nc2ccc3c(c2)CC(=O)N3)ncc1C(F)(F)F)S(C)(=O)=O [PF-00562271]

>  <Kd>
> 30 µM (inactive)

$$$$
>  <Compound>
COc1cc2c(N3CCN(C(=O)Nc4ccc(OC(C)C)cc4)CC3)ncnc2cc1OCCCN1CCCCC1 [TANDUTINIB]

>  <Kd>
> 30 µM (inactive)

$$$$
>  <Compound>
COc1cc2ncnc(Nc3ccc(F)c(Cl)c3)c2cc1NC(=O)/C=C/CN1CCCCC1 [DACOMITINIB ANHYDROUS]

>  <Kd>
> 30 µM (inactive)

$$$$
>  <Compound>
C#Cc1cccc(Nc2ncnc3cc4c(cc23)OCCOCCOCCO4)c1 [ICOTINIB]

>  <Kd>
> 30 µM (inactive)

$$$$
>  <Compound>
CC(C)CC(=O)Nc1[nH]nc2c1CN(C(=O)C1CCN(C)CC1)C2(C)C [PHA-793887]

>  <Kd>
> 30 µM (inactive)

$$$$

---

Target system: Fibroblast growth factor receptor 1 (Homo sapiens); further: in the data inactive means no Kd found up to 30 µM
Sequence (P11362 whole entry): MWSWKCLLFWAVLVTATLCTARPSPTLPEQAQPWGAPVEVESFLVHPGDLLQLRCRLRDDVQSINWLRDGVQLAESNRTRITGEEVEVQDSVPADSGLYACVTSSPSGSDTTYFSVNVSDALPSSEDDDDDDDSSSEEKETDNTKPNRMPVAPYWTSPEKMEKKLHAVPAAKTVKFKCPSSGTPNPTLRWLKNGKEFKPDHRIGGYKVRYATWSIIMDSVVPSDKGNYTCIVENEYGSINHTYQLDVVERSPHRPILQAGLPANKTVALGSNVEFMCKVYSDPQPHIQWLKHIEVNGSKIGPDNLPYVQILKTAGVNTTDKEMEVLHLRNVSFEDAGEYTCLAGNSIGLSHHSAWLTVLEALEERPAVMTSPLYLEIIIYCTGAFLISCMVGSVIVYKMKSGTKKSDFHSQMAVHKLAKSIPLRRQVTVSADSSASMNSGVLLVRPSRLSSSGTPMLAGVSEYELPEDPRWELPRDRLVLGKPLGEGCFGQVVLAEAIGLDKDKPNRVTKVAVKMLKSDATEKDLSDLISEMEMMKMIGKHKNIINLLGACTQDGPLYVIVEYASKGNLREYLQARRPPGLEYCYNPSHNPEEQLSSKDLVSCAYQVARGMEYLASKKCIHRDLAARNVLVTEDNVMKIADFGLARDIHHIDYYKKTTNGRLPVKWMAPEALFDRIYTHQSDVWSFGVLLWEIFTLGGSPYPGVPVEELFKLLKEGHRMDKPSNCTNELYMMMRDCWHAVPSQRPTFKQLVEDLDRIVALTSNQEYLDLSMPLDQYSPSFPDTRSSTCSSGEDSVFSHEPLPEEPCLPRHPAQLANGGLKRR
Calls of active or inactive are those of the source.
Outcomes: active, inactive

>  <Molecule>
O=C(NOC[C@H](O)CO)c1ccc(F)c(F)c1Nc1ccc(I)cc1F

>  <Label>
inactive

$$$$
>  <Molecule>
Cn1c(=O)c(F)c(Nc2ccc(I)cc2F)c2c(=O)n(C[C@@H](O)CO)cnc21

>  <Label>
inactive

$$$$
>  <Molecule>
CNC(=O)c1cccc(-c2ccc3c(N4CCOC[C@@H]4C)nc(N4CCOC[C@@H]4C)nc3n2)c1

>  <Label>
inactive

$$$$
>  <Molecule>
C=CC(=O)Nc1cccc(Nc2nc(Nc3ccc(N4CCN(C(C)=O)CC4)cc3OC)ncc2C(F)(F)F)c1

>  <Label>
inactive

$$$$
>  <Molecule>
S=C(NCc1ccc2c(c1)OCO2)N1CCN(c2ncnc3c2oc2ccccc23)CC1

>  <Label>
inactive

$$$$
>  <Molecule>
Cn1cc(-c2[nH]c3cc(NC(=O)[C@H](N)C4CCCCC4)cc4c3c2C=NNC4=O)cn1

>  <Label>
active

$$$$
>  <Molecule>
Cc1c(NC(=O)OC[C@@H]2COCCN2)cn2ncnc(Nc3ccc4c(cnn4Cc4cccc(F)c4)c3)c12

>  <Label>
inactive

$$$$
>  <Molecule>
N#CCNC(=O)c1ccc(-c2ccnc(Nc3ccc(N4CCOCC4)cc3)n2)cc1

>  <Label>
inactive

$$$$
